Documented pIC50 across a set of binders
# MEASUREMENT TARGET: T1, human IL-2Rβ (CD122 protein, Fc Tag) (27-239) (human, UniProt P14784 27-239)
# T1 construct: range 27-239; Bought protein; also called hu-IL-2Rβ subunit; IL-2Rβ subunit; not shown: Fc tag of the bought protein
# T1 sequence (looked up): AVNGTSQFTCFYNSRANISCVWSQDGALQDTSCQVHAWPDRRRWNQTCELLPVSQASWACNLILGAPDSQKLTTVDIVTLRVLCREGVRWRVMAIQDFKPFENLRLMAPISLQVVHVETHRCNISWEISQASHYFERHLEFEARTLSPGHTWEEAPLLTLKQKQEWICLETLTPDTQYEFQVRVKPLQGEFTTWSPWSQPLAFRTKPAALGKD
# ASSAY PROCEDURE: phage ELISA competition
pIC50: −log10 of the molar value. Bridge positions count the residues as written; N and C are the ends. Ends that are not written are not given here.

Observe how each entry below is paired with its result.
{"BINDER": "RLASDWWDCYIAKVGELCDF [SEQ ID NO 2855]", "RESULT": "> 4.00"}
{"BINDER": "WTPCWIAHLGDLCDLEPQDDTD (disulfide 4-13 (inferred)) [SEQ ID NO 2628]", "RESULT": "> 4.00"}

Which pIC50 is listed for WQPCWRAKLGELCDLE (disulfide 4-13 (inferred)) [SEQ ID NO 2594] ? > 4.00
